B1: TRIM29 (parent)
chain: RKCPVHGKTMELFCQTDQTCICYL

Variants of: B1
Assay: protein stability index of a GFP-peptide fusion (GPS, HEK-293T) (PSI 1-6); higher = more stable;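 further: lentivirally expressed fusions sorted by FACS into six bins by GFP to DsRed ratio, PSI derived from sequencing read proportions per bin multiplied by bin number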
Conditions: c terminus: a fixed tail appended
Kind request: treat 3 as inclusive, so protein stability index at 3 or higher is Met, anything lower is Not met.

Worked cases, answers included:
query-sequence | discrete-label
RKCPVHGKTMILFCQTDQTCICYL [E11I] | Not met
RKCPVHGKTMELFCQTDQTCSCYL [I21S] | Not met
RKCPVHGKTMELFDQTDQTCICYL [C14D] | Not met

Input line: Is it the case that RKCPVHGKTMELFCQTDQTCINYL [C22N] has protein stability index reaching or exceeding 3?
Output line: Not met

Input line: RKCPVHGKTMELTCQTDQTCICYL [F13T] , same question.
Output line: Not met

Input line: RKCIVHGKTMELFCQTDQTCICYL [P4I] , same question.
Output line: Not met

Input line: RKCPVHGKTMELFCQPDQTCICYL [T16P] , same question.
Output line: Not met
